Values compiled from paper PMC7038953.

Each entry below lists one item and its recorded Fluorescence Intensity Enhancement value.
Test system: TBA15 (DNA, G4) GGTTGGTGTGGTTGG
Assay: fluorescence light-up, plate reader
Details: 100 mM K+ (KCl); 20 mM Tris-HCl, pH 7.8; 5 µM dye, 5 µM oligonucleotide; not an affinity constant
Write the answer as a number in fold, unit excluded.

Structure Notation: CC(=O)C1=N/C(=C\c2c[nH]c3ccccc23)C(=O)N1C
Fluorescence Intensity Enhancement / fold: 2.9

Reported Fluorescence Intensity Enhancement, compound CN1C(=O)/C(=C/c2ccc(O)cc2)N=C1/C=C/c1ccc(Br)cc1 : ____
2.0

Name the recorded Fluorescence Intensity Enhancement for Cc1ccc(/C(O)=C/C2=NC(=C\c3ccc(O)cc3)/C(=O)N2C)cc1 .
2.1

Quick check: Fluorescence Intensity Enhancement of COc1cc(/C=C2N=C(/C=C/c3ccncc3)N(C)C\2=O)cc(OC)c1O ?
3.3

###

System: TBA25 (DNA, G4) TGGTAGGTTGGTGTGGTTGGGGCCA
Assay: fluorescence light-up, plate reader
Details: 100 mM K+ (KCl); 20 mM Tris-HCl, pH 7.8; 5 µM dye, 5 µM oligonucleotide; not an affinity constant
Reported Metric: Fluorescence Intensity Enhancement (fold)
Answer in fold, number only, no unit symbol.

Here's what some known entries look like.
Structure Notation: CN1C(=O)/C(=C/c2ccc(O)cc2)N=C1/C=C/c1ccc(N(C)C)cc1
Fluorescence Intensity Enhancement [fold]: 20.6
--
Structure Notation: Cc1ccc(/C(O)=C/C2=NC(=C\c3ccc(O)cc3)/C(=O)N2C)cc1
Fluorescence Intensity Enhancement [fold]: 19.1
--
Structure Notation: CC(=O)C1=N/C(=C\c2c[nH]c3ccccc23)C(=O)N1C
Fluorescence Intensity Enhancement [fold]: 31.7
--
Structure Notation: CN1C(=O)/C(=C/c2ccc(O)cc2)N=C1/C=C/c1ccccc1F
Fluorescence Intensity Enhancement [fold]: 23.0

# query: Fluorescence Intensity Enhancement of entry CN1C(=O)/C(=C/c2ccc(O)cc2)N=C1C(=O)c1ccccc1
8.7

###

// reported Fluorescence Intensity Enhancement for each item listed
Test system: TBA31 (DNA, G4) CACTGGTAGGTTGGTGTGGTTGGGGCCAGTG
Assay: fluorescence light-up, plate reader
Conditions: 100 mM K+ (KCl); 20 mM Tris-HCl, pH 7.8; 5 µM dye, 5 µM oligonucleotide; not an affinity constant
Give just the number in fold; leave the unit off.

Recorded Fluorescence Intensity Enhancement of CN1C(=O)/C(=C/c2ccc(O)cc2)N=C1/C=C/c1ccc(Br)cc1 , please.
7.4

Which measured Fluorescence Intensity Enhancement value corresponds to CN1C(=O)/C(=C/c2ccc(O)cc2)N=C1/C=C/c1ccc(N(C)C)cc1 ?
12.3

Endpoint output: Fluorescence Intensity Enhancement of COc1cc(/C=C2N=C(/C=C/c3ccncc3)N(C)C\2=O)cc(OC)c1O . Value?
16.5

Reported Fluorescence Intensity Enhancement for CC(=O)C1=N/C(=C\c2c[nH]c3ccccc23)C(=O)N1C : what is it?
20.5

Would you mind telling me what Fluorescence Intensity Enhancement value was observed for Cc1ccc(/C(O)=C/C2=NC(=C\c3ccc(O)cc3)/C(=O)N2C)cc1 ?
18.8

###

Some compounds, each annotated with its measured Fluorescence Intensity Enhancement.
Test system: ON31 (RNA, G4) CACUGGUAGGUUGGUGUGGUUGGGGCCAGUG
Test: fluorescence light-up, plate reader
Details: 100 mM K+ (KCl); 20 mM Tris-HCl, pH 7.8; 5 µM dye, 5 µM oligonucleotide; not an affinity constant
Reply numerically in fold, unit not repeated.

Structure Notation: CN1C(=O)/C(=C/c2ccc(O)cc2)N=C1/C=C/c1ccc(C(F)(F)F)cc1
Fluorescence Intensity Enhancement, fold: 2.5

Structure Notation: CC(=O)C1=N/C(=C\c2c[nH]c3ccccc23)C(=O)N1C
Fluorescence Intensity Enhancement, fold: 19.0

Structure Notation: CN1C(=O)/C(=C/c2ccccc2)N=C1Nc1ccccc1
Fluorescence Intensity Enhancement, fold: 11.0

So what's the measured Fluorescence Intensity Enhancement for this one? COc1cc(/C=C2N=C(/C=C/c3ccncc3)N(C)C\2=O)cc(OC)c1O
6.8
